- ASSAY_PROTOCOL: qHTS Assay for Agonists of the Relaxin Receptor RXFP1: Cytotoxicity SAR
- RECORDED_CONDITIONS: HEK293-RXFP1 viability, ATPLite luminescence, 72 h; series mostly up to 78.1 µM
- Experimental: The relaxin hormone is involved in the variety of biological functions in normal tissues and diseases. […] RXFP1 activation was assayed by changes in cAMP levels as detected with a time-resolved fluorescence energy transfer (TR-FRET) cAMP detection kit. […] In this assay, the luciferase enzyme catalyzes the conversion of the added substrate D-luciferin to oxyluciferin and light with ATP. […] After compound incubation, the levels of ATP in each well were measured with the addition of the ATPLite assay reagent.
Results filed as inconclusive are left out. Calls of active or inactive are those of the source. The call rests on the fitted dose curve; in most records, active means well fitted cell-killing curve with a large enough effect (not every such curve was filed as active); inconclusive means small, poorly fitted or top-dose-only effect, or another doubt; inactive means no such curve, though single readings can be large or run the other way.
Labels: yes = active, no = inactive

SMILES_STR	LABEL
Cc1ccccc1C(=O)Nc1ccccc1C(=O)Nc1cccc(C(F)(F)F)c1	no
O=C(Nc1cccc(C(F)(F)F)c1)c1ccccc1NC(=O)C1CC1	no
O=C(Nc1cccc(-c2ccccc2C(F)(F)F)c1)c1ccccc1NC(=O)C1CCCCC1	no
O=C(Nc1cccc(C(F)(F)F)c1)c1ccccc1NC(=O)C1CCCCCC1	yes
CCOc1ccccc1-c1nc2c(C(=O)Nc3cccc(S(=O)(=O)C(F)(F)F)c3)cccc2[nH]1	no
CCOc1ccccc1C(=O)Nc1ncccc1C(=O)Nc1cccc(S(=O)(=O)C(F)(F)F)c1	yes
CCOc1ccccc1C(=O)Nc1sccc1C(=O)Nc1cccc(S(=O)(=O)C(F)(F)F)c1	yes
CC(C)Oc1ccccc1C(=O)Nc1ccccc1C(=O)Nc1cccc(C(F)(F)F)c1	no
CCOc1ccccc1C(=O)Nc1ccccc1CNc1cccc(S(=O)(=O)C(F)(F)F)c1	no
COc1ccc(C(=O)Nc2ccccc2C(=O)Nc2cccc(C(F)(F)F)c2)cc1	no
COc1ccccc1C(=O)Nc1ccccc1C(=O)Nc1cccc(C(F)(F)F)c1	no
CCCCOc1ccccc1C(=O)Nc1ccccc1C(=O)Nc1cccc(S(=O)(=O)C(F)(F)F)c1	no
O=C(Nc1ccccc1C(=O)Nc1cccc(C(F)(F)F)c1)c1ccccc1Cl	yes
O=C(Nc1cccc(C(F)(F)F)c1)c1ccccc1NC(=O)c1ccccc1OC(F)(F)F	no
CN(C)CCOc1ccccc1C(=O)Nc1ccccc1C(=O)Nc1cccc(C(F)(F)F)c1	no
O=C(NCc1ccco1)c1ccccc1NC(=O)c1ccccc1NC(=O)C1CCCCC1	no
COc1ccccc1C(=O)Nc1cccc(C(=O)Nc2cccc(C(F)(F)F)c2)c1	yes
Cc1cccc(NC(=O)c2ccccc2NC(=O)C2CCCCC2)c1	yes
O=C(Nc1cccc(SC(F)(F)F)c1)c1ccccc1NC(=O)C1CCCCC1	no
O=C(Nc1cccc(-c2ccccc2)c1)c1ccccc1NC(=O)C1CCCCC1	yes
O=C(Nc1cccc(-c2cccc(C(F)(F)F)c2)c1)c1ccccc1NC(=O)C1CCCCC1	yes
CCC(CC)C(=O)Nc1ccccc1C(=O)Nc1cccc(C(F)(F)F)c1	yes
CCOc1ccccc1C(=O)Nc1ccccc1C(=O)Nc1cccc(C(F)(F)F)c1	no
O=C(Nc1cccc([N+](=O)[O-])c1)c1ccccc1NC(=O)C1CCCCC1	no
CCOc1ccccc1C(=O)NCCC(=O)Nc1cccc(S(=O)(=O)C(F)(F)F)c1	no
COc1ccccc1CNc1ccccc1C(=O)Nc1cccc(C(F)(F)F)c1	yes
O=C(Nc1cccc(C(F)(F)F)c1)c1ccccc1NC(=O)C1CCCC1	no
CCOc1ccccc1S(=O)(=O)Nc1ccccc1C(=O)Nc1cccc(S(=O)(=O)C(F)(F)F)c1	yes
CCCOc1ccccc1C(=O)Nc1ccccc1C(=O)Nc1cccc(S(=O)(=O)C(F)(F)F)c1	yes
COc1ccccc1C(=O)N(C)c1ccccc1C(=O)N(C)c1cccc(C(F)(F)F)c1	yes
O=C(Nc1cccc(Br)c1)c1ccccc1NC(=O)C1CCCCC1	no
COc1ccccc1C(=O)Nc1ccccc1C(=O)N(C)c1cccc(C(F)(F)F)c1	yes
O=C(Nc1ccc(C(F)(F)F)cc1)c1ccccc1NC(=O)C1CCCCC1	yes

Ref: PubChem BioAssay AID602288
